# Test system: S. aureus Newman;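 note: first quartile when negative (synergy) and third quartile when positive (antagonism)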
# assay.name: Bliss interaction score (quartile over a dose matrix) (fitness difference); higher = more antagonism (negative = synergy)
observable: Bliss interaction score
// no unit string in output, number only

May I ask what Bliss interaction score has been recorded for CCC[C@@H]1C[C@@H](C(=O)N[C@@H]([C@H]2O[C@H](SC)[C@H](O)[C@@H](O)[C@H]2O)[C@H](C)Cl)N(C)C1 [Clindamycin] + O=C1CN(/N=C/c2ccc([N+](=O)[O-])o2)C(=O)N1 [Nitrofurantoin] ?
-0.127

May I ask what Bliss interaction score has been recorded for CCC[C@@H]1C[C@@H](C(=O)N[C@@H]([C@H]2O[C@H](SC)[C@H](O)[C@@H](O)[C@H]2O)[C@@H](C)O)N(C)C1 [Lincomycin] + CO[C@@H]1[C@@H](OC(N)=O)[C@@H](O)[C@H](Oc2ccc3c(O)c(NC(=O)c4ccc(O)c(CC=C(C)C)c4)c(=O)oc3c2C)OC1(C)C [Novobiocin] ?
0.191

May I ask what Bliss interaction score has been recorded for CC(=O)O[C@H]1C[C@@]2(C)[C@@H](C[C@@H](O)[C@H]3[C@@]4(C)CC[C@@H](O)[C@@H](C)[C@@H]4CC[C@@]32C)/C1=C(\CCC=C(C)C)C(=O)O [Fusidic acid] + CO[C@@]12[C@H](COC(N)=O)C3=C(C(=O)C(C)=C(N)C3=O)N1C[C@@H]1N[C@@H]12 [MitomycinC] ?
0.0159

May I ask what Bliss interaction score has been recorded for COc1cc(Cc2cnc(N)nc2N)cc(OC)c1OC [Trimethoprim] + CC1=C\[C@@H](O)CC(=O)Cc2nc(co2)C(=O)N2CCC=C2C(=O)O[C@H](C(C)C)[C@H](C)/C=C/C(=O)NC\C=C\1 ?
0.0354
